System: MV4,11 cells
protocolDescription: Cell Assay: CS0001, FLT3 assay using MV4,11 cells (MTS proliferation)
Type: cell-based
setupConditions: Homo sapiens
pIC50: −log10 of the molar value.
experimentalReadout: pIC50

Known pIC50 results, listed for orientation:
Using the record for "CC(C)(C)c1cc(C(=O)Nc2ccc(OCc3ccccc3F)cc2)no1" , state its measured pIC50.
5.00 to 6.00

Using the record for "CC(C)(C)c1cc(NC(=O)Cc2ccc(OCc3ccccc3)cc2)on1" , state its measured pIC50.
> 7.00

Using the record for "CC(C)(C)c1cc(NC(=O)Cc2ccc(NC(=O)c3ccc4cnccc4n3)cc2)no1" , state its measured pIC50.
> 7.00

Using the record for "Cc1cc(C)n(C(=O)Nc2ccc(Cl)cc2)n1" , state its measured pIC50.
< 5.00

Using the record for "Cc1ccc(NC(=O)c2ccc(-c3noc(-c4cc(C(C)(C)C)on4)n3)cc2)cc1" , state its measured pIC50.
6.00 to 7.00

Others:
Using the record for "CC(C)(C)c1cc(-c2nc(-c3ccc(OCc4ccccc4F)cc3)no2)no1" , state its measured pIC50.
6.00 to 7.00
